assay: Cytotoxicity in CEM cells (CD50); format: cell-based; conditions: human
readoutType: CC50 (µM)

CCc1cn([C@@H]2O[C@H](CO)[C@@H](O)[C@@H]2F)c(=O)[nH]c1=O ... 90
Cc1cn([C@@H]2O[C@H](CO)[C@@H](O)[C@@H]2F)c(=O)[nH]c1=O ... 10

---

assay: Cytotoxicity in MT2 cells (CD50); assay type: cell-based; details: human
Known CC50 of a selection of molecules
readoutType: CC50 (µM)

CCc1cn([C@@H]2O[C@H](CO)[C@@H](O)[C@@H]2F)c(=O)[nH]c1=O ... 100
CCc1cn([C@H]2O[C@@H](CO)[C@H](O)[C@H]2F)c(=O)[nH]c1=O ... 100
Cc1cn([C@H]2O[C@@H](CO)[C@H](O)[C@H]2F)c(=O)[nH]c1=O ... 100

---

test: Cytotoxicity in H1 cells (cell count); assay type: cell-based; settings: 37° C., read-out: CD50
Known CC50 at 72 h of a selection of compounds
readoutType: CC50 at 72 h

CCc1cn([C@@H]2O[C@H](CO)[C@@H](O)[C@@H]2F)c(=O)[nH]c1=O ... > 400 µM
CCc1cn([C@H]2O[C@@H](CO)[C@H](O)[C@H]2F)c(=O)[nH]c1=O ... > 400 µM
Cc1cn([C@H]2O[C@@H](CO)[C@H](O)[C@H]2F)c(=O)[nH]c1=O ... 913 µM
Cc1cn([C@@H]2O[C@H](CO)[C@@H](O)[C@@H]2F)c(=O)[nH]c1=O ... < 10 µM

---

Known Therapeutic Index (CD50/ID90) of a selection of compounds
system: EBV; assay: Inhibition of EBV production in H1 cells (bioassay, EBV DP activity in superinfected Raji cells); assay type: cell-based; settings: EBV; H1 cells
readoutType: Therapeutic Index (CD50/ID90)

Cc1cn([C@H]2O[C@@H](CO)[C@H](O)[C@H]2F)c(=O)[nH]c1=O ... 182
CCc1cn([C@H]2O[C@@H](CO)[C@H](O)[C@H]2F)c(=O)[nH]c1=O ... 20

---

Known CC50 of a selection of compounds
experiment: Cytotoxicity (CD50) of Table I, cell line not given; assay type: cell-based
readoutType: CC50

CCc1cn([C@H]2O[C@@H](CO)[C@H](O)[C@H]2F)c(=O)[nH]c1=O ... > 400 µM
Cc1cn([C@@H]2O[C@H](CO)[C@@H](O)[C@@H]2F)c(=O)[nH]c1=O ... < 10 µM
CCc1cn([C@@H]2O[C@H](CO)[C@@H](O)[C@@H]2F)c(=O)[nH]c1=O ... > 400 µM
Cc1cn([C@H]2O[C@@H](CO)[C@H](O)[C@H]2F)c(=O)[nH]c1=O ... 913 µM
